The measured values listed here are drawn from PubChem BioAssay AID1963435.

Tested on: PANC-1 complex spheroid growth, percent test/control
Method: Anticancer human tumor PANC-1 cell line growth inhibition [Asc];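 also: spheroids exposed to agents for 7 days; percent viability relative to DMSO vehicle wells taken as 100%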
Applied conditions: second compound 0.0316 µM; first compound 0.949 µM; hits give low values
Measurement name: viability, T/C

Past entries and their recorded results:
INSERT INTO results (compound, reading) VALUES
  ('Cc1nc(N2CCC3(CC2)COC(C)C3N)c(CO)nc1Sc1ccnc(N)c1Cl (centres undefined) + Cc1c(S(C)(=O)=O)c(-c2cc(F)cc(N3CCN(c4ccc(NS(=O)(=O)c5ccc(NC(CCN6CCC(C(=O)OCCCP(=O)(O)O)CC6)CSc6ccccc6)c(S(=O)(=O)C(F)(F)F)c5)cc4)CC3)c2)c(-c2ccc(Cl)cc2)n1C(C)C', '89.5%'),
  ('CCN1C(C(=O)NC23CCC(C(=O)O)(CC2)CC3)C(c2cccc(Cl)c2F)C2(C(=O)Nc3cc(Cl)ccc32)C12CCCCC2 (centres undefined) + CNC(C)C(=O)NC1CN(S(=O)(=O)c2cccc(S(=O)(=O)N3CCC4CCC(C(=O)NC(c5ccccc5)c5ccccc5)N4C(=O)C(NC(=O)C(C)NC)C3)c2)CCC2CCC(C(=O)NC(c3ccccc3)c3ccccc3)N2C1=O', '104%'),
  ('Cc1nc(N2CCC3(CC2)COC(C)C3N)c(CO)nc1Sc1ccnc(N)c1Cl (centres undefined) + CNC(C)C(=O)NC1CN(S(=O)(=O)c2cccc(S(=O)(=O)N3CCC4CCC(C(=O)NC(c5ccccc5)c5ccccc5)N4C(=O)C(NC(=O)C(C)NC)C3)c2)CCC2CCC(C(=O)NC(c3ccccc3)c3ccccc3)N2C1=O', '87.6%');

Give viability, T/C (PANC-1 complex spheroid growth, percent test/control) of the following compound: CCN1C(C(=O)NC23CCC(C(=O)O)(CC2)CC3)C(c2cccc(Cl)c2F)C2(C(=O)Nc3cc(Cl)ccc32)C12CCCCC2 (centres undefined) + Cc1c(S(C)(=O)=O)c(-c2cc(F)cc(N3CCN(c4ccc(NS(=O)(=O)c5ccc(NC(CCN6CCC(C(=O)OCCCP(=O)(O)O)CC6)CSc6ccccc6)c(S(=O)(=O)C(F)(F)F)c5)cc4)CC3)c2)c(-c2ccc(Cl)cc2)n1C(C)C
109%
